# RECORDED CONDITIONS: in n-butanol, 308.15 K
RESULT TYPE: solubility (mole fraction)

Report solubility (mole fraction), nothing else, for this molecule: O=C(O)Cc1c[nH]c2ccccc12
3.83e-05

---

# RECORDED CONDITIONS: in isopropanol, 283.15 K
RESULT TYPE: solubility (mole fraction)
// no unit string in output, number only

Give the measured solubility (mole fraction) for O=C(O)Cc1c[nH]c2ccccc12
2.27e-05

---

# RECORDED CONDITIONS: in ethyl acetate, 308.15 K
RESULT TYPE: solubility (mole fraction)
Number only, no unit.

Tell me its solubility (mole fraction) given O=C(O)Cc1c[nH]c2ccccc12 as the entry.
4.85e-05

---

# RECORDED CONDITIONS: in n-butanol, 288.15 K
RESULT TYPE: solubility (mole fraction)
In your answer, state the number alone without any accompanying words.

Indicate the recorded solubility (mole fraction) value for this molecule: O=C(O)Cc1c[nH]c2ccccc12
3.04e-05

---

# RECORDED CONDITIONS: in ethyl acetate, 323.15 K
RESULT TYPE: solubility (mole fraction)
// no unit, no text: just the number

Hello, please tell me recorded solubility (mole fraction) for this one: O=C(O)Cc1c[nH]c2ccccc12
5.76e-05

---

# RECORDED CONDITIONS: in n-propanol, 313.15 K
RESULT TYPE: solubility (mole fraction)

Output solubility (mole fraction) of O=C(O)Cc1c[nH]c2ccccc12
2.42e-05

---

# RECORDED CONDITIONS: in isopropanol, 308.15 K
RESULT TYPE: solubility (mole fraction)
Answer with the value's number alone.

Answer with the recorded solubility (mole fraction) for the compound listed here: O=C(O)Cc1c[nH]c2ccccc12
3.1e-05

---

# RECORDED CONDITIONS: in ethanol, 303.15 K
RESULT TYPE: solubility (mole fraction)
Would you mind answering with just the numeric figure?

Give solubility (mole fraction) for the following compound: O=C(O)Cc1c[nH]c2ccccc12
1.73e-05

---

# RECORDED CONDITIONS: in n-propanol, 303.15 K
RESULT TYPE: solubility (mole fraction)
Number only, no unit.

Using known records, supply solubility (mole fraction) for O=C(O)Cc1c[nH]c2ccccc12
2.08e-05

---

# RECORDED CONDITIONS: in n-butanol, 313.15 K
RESULT TYPE: solubility (mole fraction)

Please list solubility (mole fraction) recorded for the molecule O=C(O)Cc1c[nH]c2ccccc12
4.09e-05

---

# RECORDED CONDITIONS: in ethanol, 323.15 K
RESULT TYPE: solubility (mole fraction)
Give a plain numeric answer without units written out.

Please give measured solubility (mole fraction) of the following entry: O=C(O)Cc1c[nH]c2ccccc12
2.41e-05

---

# RECORDED CONDITIONS: in acetonitrile, 313.15 K
RESULT TYPE: solubility (mole fraction)
In your answer, state the number alone without any accompanying words.

Look up solubility (mole fraction) of O=C(O)Cc1c[nH]c2ccccc12 and report it.
1.1e-05

---

# RECORDED CONDITIONS: in methanol, 278.15 K
RESULT TYPE: solubility (mole fraction)
Answer as a number with no unit attached.

Identify the reported solubility (mole fraction) for the following entry. O=C(O)Cc1c[nH]c2ccccc12
8.95e-06

---

# RECORDED CONDITIONS: in chloroform, 318.15 K
RESULT TYPE: solubility (mole fraction)
Number, no unit, nothing else.

Tell me measured solubility (mole fraction) for O=C(O)Cc1c[nH]c2ccccc12 please.
4.34e-06

---

# RECORDED CONDITIONS: in n-propanol, 283.15 K
RESULT TYPE: solubility (mole fraction)

Identify measured solubility (mole fraction) associated with O=C(O)Cc1c[nH]c2ccccc12
1.54e-05

---

# RECORDED CONDITIONS: in DMF, 318.15 K
RESULT TYPE: solubility (mole fraction)
Please reply with the number alone, leaving off any unit.

Give the value of solubility (mole fraction) reported for the following: O=C(O)Cc1c[nH]c2ccccc12
4.74e-05

---

# RECORDED CONDITIONS: in n-propanol, 318.15 K
RESULT TYPE: solubility (mole fraction)
Please respond with just the number, no unit label.

Give the reported solubility (mole fraction) for this compound. O=C(O)Cc1c[nH]c2ccccc12
2.62e-05

---

# RECORDED CONDITIONS: in n-butanol, 318.15 K
RESULT TYPE: solubility (mole fraction)
Give a plain numeric answer without units written out.

Respond only with solubility (mole fraction) recorded for O=C(O)Cc1c[nH]c2ccccc12
4.34e-05

---

# RECORDED CONDITIONS: in chloroform, 288.15 K
RESULT TYPE: solubility (mole fraction)
Answer with a number only.

Using the record for O=C(O)Cc1c[nH]c2ccccc12 , state its measured solubility (mole fraction).
3.11e-06

---

# RECORDED CONDITIONS: in n-propanol, 278.15 K
RESULT TYPE: solubility (mole fraction)
Number only, no unit.

Supply measured solubility (mole fraction) of O=C(O)Cc1c[nH]c2ccccc12 in your reply.
1.45e-05

---

# RECORDED CONDITIONS: in chloroform, 293.15 K
RESULT TYPE: solubility (mole fraction)

Output measured solubility (mole fraction) for this item: O=C(O)Cc1c[nH]c2ccccc12
3.29e-06

---

# RECORDED CONDITIONS: in 1,4-dioxane, 318.15 K
RESULT TYPE: solubility (mole fraction)
In your answer, state the number alone without any accompanying words.

Indicate its recorded solubility (mole fraction); the compound in question is O=C(O)Cc1c[nH]c2ccccc12
3.12e-05

---

# RECORDED CONDITIONS: in ethanol, 278.15 K
RESULT TYPE: solubility (mole fraction)

Identify the reported solubility (mole fraction) for the following entry. O=C(O)Cc1c[nH]c2ccccc12
1.17e-05

---

# RECORDED CONDITIONS: in methanol, 283.15 K
RESULT TYPE: solubility (mole fraction)
Kindly provide the number alone.

Report measured solubility (mole fraction); entry is O=C(O)Cc1c[nH]c2ccccc12
9.76e-06

---

# RECORDED CONDITIONS: in acetonitrile, 293.15 K
RESULT TYPE: solubility (mole fraction)
Provide a numeric answer; units are not to be included.

Given O=C(O)Cc1c[nH]c2ccccc12 , respond with its solubility (mole fraction).
8.03e-06

---

# RECORDED CONDITIONS: in ethyl acetate, 298.15 K
RESULT TYPE: solubility (mole fraction)

Complete the entry with solubility (mole fraction) for O=C(O)Cc1c[nH]c2ccccc12
4.32e-05

---

# RECORDED CONDITIONS: in n-propanol, 293.15 K
RESULT TYPE: solubility (mole fraction)
Hey, just send me the number, nothing else.

Output solubility (mole fraction) of O=C(O)Cc1c[nH]c2ccccc12
1.8e-05

---

# RECORDED CONDITIONS: in n-butanol, 278.15 K
RESULT TYPE: solubility (mole fraction)

State its solubility (mole fraction): O=C(O)Cc1c[nH]c2ccccc12
2.78e-05

---

# RECORDED CONDITIONS: in ethanol, 283.15 K
RESULT TYPE: solubility (mole fraction)
// keep it numeric: no unit symbol after the value

Report solubility (mole fraction), nothing else, for this compound: O=C(O)Cc1c[nH]c2ccccc12
1.25e-05
